Read-out: NAD(P)H dehydrogenase [quinone] 1 (NQO1), NQO1 (gene 1728)
Assay: LTEA_HepaRG_NQO1: Life Technologies and Expression Analysis (LTEA) Assay for NAD(P)H dehydrogenase [quinone] 1 (NQO1) using HepaRG (AID 2283526)
Conditions: mRNA level, 48 h; actives raise or lower the signal
Calls of active or inactive are those of the source. How the source made its calls: active means hit-call score of the fitted dose curve at least 0.9, where 1 is the maximum; inactive means score below 0.9.
Entry note: the call must match one of active, inactive

compound: CCOC(=O)C(Cl)Cc1cc(-n2nc(C)n(C(F)F)c2=O)c(F)cc1Cl (stereo not given)
label: inactive
//
compound: O=C(O)COc1nc(Cl)c(Cl)cc1Cl
label: inactive
//
compound: OC(c1ccc(Cl)cc1)(c1cncnc1)c1ccccc1Cl (stereo not given)
label: inactive
//
compound: CS/C(C)=N/OC(=O)N(C)SN(C)C(=O)O/N=C(\C)SC
label: inactive
//
compound: COC(=O)N(OC)c1ccccc1COc1ccn(-c2ccc(Cl)cc2)n1
label: active
//
compound: CCNc1nc(Cl)nc(NC(C)C)n1
label: inactive
//
compound: C=CC1(C)OC(=O)N(c2cc(Cl)cc(Cl)c2)C1=O (stereo not given)
label: inactive
//
compound: COP(N)(=O)SC (stereo not given)
label: inactive

Dear all, I need the recorded test outcome for Cc1c(F)c(F)c(COC(=O)C2C(/C=C(\Cl)C(F)(F)F)C2(C)C)c(F)c1F (stereo not given) , thank you.
inactive

Continue with COC(=O)C=C(C)OP(=O)(OC)OC
inactive
